Molecular target: human urokinase-type plasminogen activator receptor (uPAR, CD87), cell-bound (human, UniProt Q03405 23-305)
Sequence (Q03405 23-305): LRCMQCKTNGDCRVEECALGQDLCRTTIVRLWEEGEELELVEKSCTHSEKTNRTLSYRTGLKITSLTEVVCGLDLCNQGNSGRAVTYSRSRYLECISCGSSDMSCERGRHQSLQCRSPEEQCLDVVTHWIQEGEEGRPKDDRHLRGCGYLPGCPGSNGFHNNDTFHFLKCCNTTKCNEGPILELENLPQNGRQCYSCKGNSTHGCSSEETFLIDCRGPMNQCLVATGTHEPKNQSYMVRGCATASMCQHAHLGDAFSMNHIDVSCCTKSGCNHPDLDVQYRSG
Assay: cell-based or functional assay
Plasminogen activation inhibition (IC50, ug/ml) below 0.07 µg/mL gives F; Plasminogen activation inhibition (IC50, ug/ml) at or above it gives T.

{"columns": ["Binder", "Class assignment"],
 "data": [
  ["anti-uPAR monoclonal antibody 3.8.3 (antibody, V domains shown) VH: EVQLVESGGGLVQPGGSLRLSCAASGFTFSSYWMSWVRQAPGKGLEWVANIKQHGSEKYYVDSVKGRFTISRDNAKNSLYLQMNSLRAEDTAVYYCAREEAYYYDNSGYYWYFDLWARGTLVTVSS VL: DIQMTQSPSSVSASIGDRVTITCRASQGISSWLAWYQQKPGKTPKLLIYAASSLQSGVPSRFSGSGSGTDFTLTISSLQPEDFATYYCQQADSFPWTFGQGTKVEIK", "T"],
  ["anti-uPAR monoclonal antibody 1.41.1 (antibody, V domains shown) VH: QVQLVESGGGVVQPGRSLRLSCAAPGFTFSSYGMHWVRQAPGKGLEWVAVIWYDGSQKYYADSVKGRFTISRDNSKNTLYLQMNSLRAEDTAVYYCARGMTYYYYYGMDVWGQGTTVTVSS VL: EIVMTQSPAILSVSPGERATLSCRASQSVSSKLDWYQQKPGQAPRLLIYGASTRATGIPARFSGSGSGTEFTLTISSLQSEDFAVYYCQQYNNWPRTFGQGTKVEIK", "T"],
  ["anti-uPAR monoclonal antibody 1.61.1 (antibody, V domains shown) VH: EVQLVESGGGLVQPGGSLRLSCAASGFTFSSYDMHWVRQATGKGLEWVSAIGTAGDTYYPGSVKGRFTISRENAKNSLYLQMNSLRAGDTAVYYCAREGDYSNYFTRVRGVTYGMDVWGQGTTVTVSS VL: DIQMTQSPSSLSASVGDRVTITCRASQGISKYLAWFQQKPGKAPKSLIYGASSLQSGVPSKFSGSGSGTDFTLTISSLQPEDFATYYCQQYNSYPLTFGGGTKVEIK", "T"],
  ["fully human monoclonal antibody 4.18.1 (ATCC Accession Number PTA-7476) (antibody, V domains shown) VH: EVQLVESGGGLIQPGGSLRLSCAASGFTVRNNYMNWVRQAPGKGLEWVSVIYTGGSTYYADSVKGRFTISRDNSRNTLYLQMNSLRAEDTAVYYCAREGAVAGFDYWGQGTLVTVSL VL: EIVMTQFPATLSMSPGERATLSCRASQSVSSSLAWYQQTPGQAPRLLIYGASTRSTGFPARFSGIGSGTEFTLTISSLQSEDFAVYYCQQYGNWPLTFGQGTRLEIK", "F"],
  ["anti-uPAR monoclonal antibody 1.4.2 (antibody, V domains shown) VH: EVQLVESGGGLVQPGGSLRLSCAASGFTFSSYDMHWVRQATGKGLEWVSAIGTAGDTYYPGSVKGRFTISRENAKNSLYLQMNSLRAGDTAVYYCAREGDYSNYFTMVRGVTYGMDVWGQGTTVTVSS VL: DIQLTQSPSSLCASVGDRITITCRASQGISKYLAWFQQKPGKAPKSLIYGASSLQSGVPAKFSGSGSGTDFTLTISSLQPEDFATYYCQQYNSYPLTFGGGTKVEIK", "T"]
]}
